Tested on: Eubacterium rectale
Test: growth AUC relative to DMSO control (median of replicates) (fraction); higher = more growth (less inhibition), active = hit call of the paper
Details: 20 µM; 24 h
MEASUREMENT_TYPE: growth AUC
Lab note: write the figure by itself, no unit.

COMPOUND: CCOP(=S)(OCC)SCSP(=S)(OCC)OCC
REPORTED_RESULT: 0.954
--
COMPOUND: Clc1ccc(C2(Cn3cncn3)CC(Br)CO2)c(Cl)c1 (configuration not stated)
REPORTED_RESULT: 0.806
--
COMPOUND: CCCSP(=S)(OCC)Oc1ccc(SC)cc1 (configuration not stated)
REPORTED_RESULT: 0.985
--
COMPOUND: O=CNC(N1CCN(C(NC=O)C(Cl)(Cl)Cl)CC1)C(Cl)(Cl)Cl (configuration not stated)
REPORTED_RESULT: 0.881
--
COMPOUND: CCCCN(CCCC)N=O
REPORTED_RESULT: 1.02
--
COMPOUND: O=C(O)COc1ccc(Cl)cc1Cl
REPORTED_RESULT: 0.943
--
COMPOUND: O=c1oc2ccccc2c(O)c1C(CC(O)c1ccc(-c2ccc(Br)cc2)cc1)c1ccccc1 (configuration not stated)
REPORTED_RESULT: 0.883
--
COMPOUND: Clc1cccc(Cl)c1Cl
REPORTED_RESULT: 0.982

stdin: Recorded growth AUC for O=C(O)C(F)(F)C(F)(F)C(F)(F)C(F)(F)C(F)(F)C(F)(F)C(F)(F)F with Eubacterium rectale, please?
stdout: 1

stdin: Recorded growth AUC for O=C(O)CNCP(=O)(O)O with Eubacterium rectale, please?
stdout: 1.01

stdin: Recorded growth AUC for Clc1ccc(C2(Cn3cncn3)OCCO2)c(Cl)c1 with Eubacterium rectale, please?
stdout: 1.03
